Listed binders paired with reported % MIF PPt Activity
TESTED SYSTEM: human macrophage migration inhibitory factor (MIF) (human, UniProt P14174 2-115)
Sequence (P14174 2-115 limits assumed): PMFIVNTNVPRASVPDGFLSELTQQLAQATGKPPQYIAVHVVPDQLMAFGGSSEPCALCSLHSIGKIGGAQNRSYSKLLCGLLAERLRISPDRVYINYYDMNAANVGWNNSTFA
MEASUREMENT PROTOCOL: cell-based or functional assay
MEASURED ENDPOINT: % MIF PPt Activity (%)

[[record]]
binder = "anti-MIF monoclonal antibody 10B11-3 (antibody, V domains shown, Mouse hybridoma antibody from a MIF knockout mouse, purified from ascites; also called Mab 10B11-3; 1OB11-3) VH: EVQLQQSGPELVKPGASVRISCKTSGYTITEYTMHWMKQSHEKSLEWIGGITPNTGVLSDNQKFRGKATLTVDKSSNTAYMELRSLTSADSAVYYCARRGNNYYGSSPWFAYWGQGTLVTVSA VL: DIQMTQSPASLSVSVGETVTITCRASENIYSNLAWYQQKQGKSPQLLVYAATNLADGVPSRFSGSGSGTQYSLNIYSLQPEDFGSYYCQHFWGTPYTFGGGTKLEIKR"
measured_number = 136

[[record]]
binder = "anti-MIF monoclonal antibody 19B11-7 (antibody, V domains shown, Mouse hybridoma antibody from a MIF knockout mouse, purified from ascites) VH: QIQLVQSGPELKKPGETVKISCKASGYSFRNYGMNWVSQPPGKGLEWMGWINTYTGEPTYADDFKGRFAFSLDTSASTAYLTINNLKNEDTATYFCARSNYGNYFDYWGQGTTLTVSA VL: NIVLTQSPASLALSLGQRATISCRTSESVDSYASSFMHWYQQKPGQSPKLLIYLASNLESGVPARFSGSGSRTDFTLTIDPVEADDAATYYCQQSNEDPRTFGGGTQLEIKR"
measured_number = 0

[[record]]
binder = "anti-MIF monoclonal antibody 6B5-5 (antibody, V domains shown) VH: DVQLQESGPGLVKPSQSLSLTCTVTGSSITSDYAWHWIRQFPGNKLEWMGYISFSGSTGYNPSLKSRFSITRDTSKNQFFLQLNSVTTEDTATYYCAREAYGYDVGYFDYWGQGTTLTVSS VL: QIVLTQSPAIMSAFPGEKVTITCSASSSVSYMHWFQQKPGTSPKLWIYGTSNLASGVPVRFSGSGSGTSYSLTISRMEAEDAATYYCQQRSSYPWTFGGGTKLEIKR"
measured_number = 82

[[record]]
binder = "anti-MIF monoclonal antibody 33G7-9 (antibody, V domains shown) VH: DVQLQESGPDLVKPSQSLSLTCSVTGYSITSGYYWNWIRQFPGNKLEWVGYLSYDGSKSHNPSLRNRISITRDPSKNQFFLKLNSVTTEDTATYYCARGGKIFYGSSYDPFAYWGQGTLVTVSS VL: DIQMTQSPASLSASVGETVTITCRASENIFNYLSWYQQKQGKSPQLLVYNVKTLTDGVPSRFSGSGSGTQFSLKINSLQPEDFGSYYCQHHYDTPYTFGRGTKLEIKR"
measured_number = 67

